inhibition overview
# target system: RAC-gamma serine/threonine-protein kinase (Homo sapiens) (UniProt Q9Y243)
# Sequence (Q9Y243 whole entry): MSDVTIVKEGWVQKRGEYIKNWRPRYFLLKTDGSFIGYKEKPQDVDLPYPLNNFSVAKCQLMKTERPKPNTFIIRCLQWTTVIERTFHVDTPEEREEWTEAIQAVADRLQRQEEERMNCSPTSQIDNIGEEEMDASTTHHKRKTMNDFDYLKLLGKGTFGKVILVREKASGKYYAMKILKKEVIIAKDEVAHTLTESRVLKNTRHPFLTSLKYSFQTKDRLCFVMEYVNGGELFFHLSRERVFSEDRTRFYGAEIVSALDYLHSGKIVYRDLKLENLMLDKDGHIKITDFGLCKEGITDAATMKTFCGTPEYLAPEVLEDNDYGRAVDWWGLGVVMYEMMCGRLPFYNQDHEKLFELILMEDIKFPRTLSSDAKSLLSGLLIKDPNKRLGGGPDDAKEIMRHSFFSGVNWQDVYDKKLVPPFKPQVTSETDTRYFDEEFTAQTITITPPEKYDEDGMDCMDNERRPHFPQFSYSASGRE
# test settings: at 1 µM
# Description: GSK_PKIS: AKT3 mean inhibition at 1 uM [Nanosyn]
Report only the number, with the unit % understood.

                                   compound    val
0  O=C(Nc1n[nH]c2nc(-c3ccco3)c(Br)cc12)C1CC1   1.46
1  c1cnn2ncc(-c3ccnc(Nc4ccc5c(c4)OCCO5)n3)c2c1    2.1
2  CCn1c(-c2nonc2N)nc2c(C#CC(C)(C)O)nc(OC[C@@H](N)c3ccccc3)cc21   87.2
3  CC(=O)Nc1cccc(C#Cc2cncnc2Nc2ccc(OCc3cccc(F)c3)c(Cl)c2)n1  -0.11

## Task // query inhibition value for entry CCn1c(-c2nonc2N)nc2ccncc21
## Result -0.73

## Task Here is the next compound: NCc1ccc(-c2nc(-c3ccc(Cl)c(O)c3)c(-c3ccncc3)[nH]2)cc1
## Result 0.68

## Task Here is the next compound: COc1ccc2cc(-c3c(-c4ccncc4)nc(-c4ccc([S+](C)[O-])cc4)n3C)ccc2c1 (stereo not drawn)
## Result 0.72

## Task Here is the next compound: COc1cccc(-n2ncc3c(N/N=C/c4cccc(F)c4)ncnc32)c1
## Result -1.99

## Task Here is the next compound: COc1ccc(-c2ccncc2)cc1C(N)=O
## Result 2.9

## Task Here is the next compound: COc1cc(C)c(NC(=O)CN(C)C)cc1Nc1nc(Nc2cccc(F)c2C(N)=O)c2cc[nH]c2n1
## Result 1.72

## Task Here is the next compound: CS(=O)(=O)CCN(CC#N)Cc1ccc(-c2ccc3ncnc(Nc4ccc(OCc5cccc(F)c5)c(Cl)c4)c3c2)o1
## Result -0.79

## Task Here is the next compound: Nc1ncnc2occ(-c3ccc(NC(=O)Nc4cc(C(F)(F)F)cc(C(F)(F)F)c4)cc3)c12
## Result 1.13

###

# target system: Casein kinase I isoform gamma-2 (Homo sapiens);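 note: values are mean inhibition figures reported as part of the GSK PKIS dataset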
# test settings: at 0.1 µM
experimental readout: inhibition (%)
Report only the number, with the unit % understood.

Completed entries (count: 3):
>>> df
                                   molecule   val
0  NS(=O)(=O)c1ccc(N/N=C2\C(=O)Nc3ccc(C(=O)NCCc4c[nH]cn4)cc32)cc1  3.01
1  [O-][S+]1CCN(Cc2ccc(-c3ccc4ncnc(Nc5ccc(OCc6ccccc6)c(F)c5)c4c3)o2)CC1  1.93
2  COc1cc2ncn(-c3cc(O[C@H](C)c4ccccc4Cl)c(C(N)=O)s3)c2cc1OC  2.55

Continue with the next molecule.
## Task // query inhibition value for entry CS(=O)(=O)CCN(CC#N)Cc1ccc(-c2ccc3ncnc(Nc4ccc(OCc5cccc(F)c5)c(Cl)c4)c3c2)o1
## Result -1.98

###

# target system: Leukocyte tyrosine kinase receptor (Homo sapiens)
# test settings: at 0.1 µM
# Description: GSK_PKIS: LTK mean inhibition at 0.1 uM [Nanosyn]
inhibition overview
Report only the number, with the unit % understood.

                                smiles_data                             target_system   val
0  COc1cc2c(cc1Nc1nc(N3CCc4ccccc43)c3cc[nH]c3n1)N(C(=O)CN(C)C)CC2  Leukocyte tyrosine kinase receptor (Homo sapiens)  75.9

## Task // query inhibition value for entry CS(=O)(=O)CCNCc1nc(-c2ccc3ncnc(Nc4ccc(F)c(Cl)c4)c3c2)cs1
## Result 2.39

## Task Here is the next molecule: COC(=O)Nc1nc2cc(Oc3ccc(NC(=O)Nc4cccc(C(=O)O)c4)cc3)ccc2[nH]1
## Result 0.33

## Task Here is the next molecule: CCn1c(-c2nonc2N)nc2c(C#CC(C)(C)O)nc(CN3CCCC3)cc21
## Result 0.56

###

# target system: Phosphatidylinositol 4,5-bisphosphate 3-kinase catalytic subunit delta isoform (Homo sapiens);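 note: values are mean percent inhibition of PI3K-delta, part of the GSK PKIS screen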
# test settings: at 0.1 µM
experimental readout: inhibition (%)
Report only the number, with the unit % understood.

                                   compound   val
0  COC(=O)Nc1nc2cc(Oc3cccc(NC(=O)Nc4cc(C(F)(F)F)ccc4F)c3)ccc2[nH]1  0.19
1  Cc1nnc(-c2ccc(C)c(-c3ccc(C(=O)Nc4cccc(C#N)c4)cc3)c2)o1  1.98
2      Nc1nc(-c2ccccn2)c(-c2ccc3ncccc3n2)s1  2.87
3  NCc1ccc(-c2nc(-c3ccc(Cl)c(O)c3)c(-c3ccncc3)[nH]2)cc1   0.9
4  COc1cccc(-n2ncc3c(N/N=C/c4cccc(F)c4)ncnc32)c1  2.15
5  O=C(Nc1n[nH]c2nc(-c3ccco3)c(Br)cc12)C1CC1   2.6
6  CS(=O)(=O)CCNCc1nc(-c2ccc3ncnc(Nc4ccc(F)c(Cl)c4)c3c2)cs1  1.95
7  CCn1c(-c2nonc2N)nc2c(C#CC(C)(C)O)nc(CN3CCCC3)cc21  0.87
8  COc1ccc2cc(-c3c(-c4ccncc4)nc(-c4ccc([S+](C)[O-])cc4)n3C)ccc2c1 (stereo not given)  6.86

Continue with the next compound.
## Task // query inhibition value for entry COc1cc2ncn(-c3cc(OCc4ccccc4Cl)c(C(N)=O)s3)c2cc1OC
## Result 0.19

###

# target system: BDNF/NT-3 growth factors receptor (Homo sapiens) (UniProt Q16620);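 note: each value is a mean percent inhibition of TrkB kinase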
# Sequence (Q16620 32-822 limits assumed): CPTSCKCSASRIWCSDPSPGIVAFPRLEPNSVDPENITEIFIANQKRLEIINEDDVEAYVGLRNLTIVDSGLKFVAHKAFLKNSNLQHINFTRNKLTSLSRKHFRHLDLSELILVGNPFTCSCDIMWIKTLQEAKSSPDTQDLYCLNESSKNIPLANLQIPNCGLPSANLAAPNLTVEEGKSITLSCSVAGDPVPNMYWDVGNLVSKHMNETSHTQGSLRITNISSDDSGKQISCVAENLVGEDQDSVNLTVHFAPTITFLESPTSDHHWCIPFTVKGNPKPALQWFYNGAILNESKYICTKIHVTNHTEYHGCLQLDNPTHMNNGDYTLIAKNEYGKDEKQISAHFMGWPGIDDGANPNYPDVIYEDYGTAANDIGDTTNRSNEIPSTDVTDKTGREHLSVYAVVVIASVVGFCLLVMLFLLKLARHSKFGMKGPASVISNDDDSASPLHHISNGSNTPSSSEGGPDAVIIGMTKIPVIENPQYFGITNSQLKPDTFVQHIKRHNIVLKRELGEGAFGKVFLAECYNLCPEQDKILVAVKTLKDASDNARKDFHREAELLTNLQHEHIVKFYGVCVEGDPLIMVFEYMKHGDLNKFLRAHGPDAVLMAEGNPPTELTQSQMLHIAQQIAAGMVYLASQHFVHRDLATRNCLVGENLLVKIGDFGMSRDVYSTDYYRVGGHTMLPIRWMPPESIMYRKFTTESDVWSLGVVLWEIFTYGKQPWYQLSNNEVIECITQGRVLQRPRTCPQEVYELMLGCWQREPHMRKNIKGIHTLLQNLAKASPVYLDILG
# test settings: at 0.1 µM
inhibition overview
Report only the number, with the unit % understood.

Completed entries (count: 3):
In [3]: df
Out[3]:
                                   compound  quantity_unit   val
0  Nc1nc(-c2ccc3c(c2)C(=Cc2cc(Br)c(O)c(Br)c2)C(=O)N3)cs1              %  1.16
1  COc1cc(C)c(NC(=O)CN(C)C)cc1Nc1nc(Nc2cccc(F)c2C(N)=O)c2cc[nH]c2n1              %  2.25
2  NC(=O)c1cccc(Nc2nccc(Nc3cccc4[nH]ncc34)n2)c1              %  0.06

## Task // query inhibition value for entry CCn1c(-c2nonc2N)nc2cncc(C(=O)N3CCNCC3)c21
## Result 3.21

## Task Here is the next compound: CCCN1CCC(Oc2cc(Nc3nc(Nc4cccc(F)c4C(N)=O)c4cc[nH]c4n3)c(OC)cc2Cl)CC1
## Result -1.93

## Task Here is the next compound: CS(=O)(=O)CCN(CC#N)Cc1ccc(-c2ccc3ncnc(Nc4ccc(OCc5cccc(F)c5)c(Cl)c4)c3c2)o1
## Result 1.7

## Task Here is the next compound: COc1cc2ncn(-c3cc(OCc4ccccc4Cl)c(C(N)=O)s3)c2cc1OC
## Result 2.11

## Task Here is the next compound: Cc1ccc(C(=O)NC2CCCCC2)cc1-c1ccc(C(=O)NCC2CC2)cc1
## Result 0.88

## Task Here is the next compound: Cc1cccc(-c2n[nH]cc2-c2ccc3ncccc3n2)n1
## Result -0.22

## Task Here is the next compound: Fc1cccc(COc2ccc(Nc3ncnc4cc(-c5ccc[nH]5)sc34)cc2Cl)c1
## Result 2.62

## Task Here is the next compound: NS(=O)(=O)c1ccc(N/N=C2\C(=O)Nc3ccc(C(=O)NCCc4c[nH]cn4)cc32)cc1
## Result 6.79

## Task Here is the next compound: COc1ccc(-c2ccncc2)cc1C(N)=O
## Result 3.52

## Task Here is the next compound: CS(=O)(=O)CCNCc1ccc(-c2ccc3ncnc(Nc4ccc(OCc5ccccc5)c(Cl)c4)c3c2)o1
## Result 2.92

## Task Here is the next compound: COc1ccc(COc2ccc(Cc3cnc(N)nc3N)cc2OC)cc1
## Result 25.7

## Task Here is the next compound: CCn1c(-c2nonc2N)nc2c(C#CC(C)(C)O)nc(CN3CCCC3)cc21
## Result -0.98

## Task Here is the next compound: O=C1NC(=O)C(c2ccc(Cl)cc2)=C1Nc1ccc(Cl)c(C(=O)O)c1
## Result 1.23

###

# target system: Mitogen-activated protein kinase 11 (Homo sapiens);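 note: values are mean percent inhibition of p38beta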
# test settings: at 1 µM
inhibition overview
Report only the number, with the unit % understood.

Completed entries (count: 3):
>>> df
                                   compound   val
0  CCCN1CCC=C(c2ccc(Nc3nc(Nc4ccccc4C(N)=O)c4cc[nH]c4n3)c(C)c2)C1   7.8
1  COc1cc2ncn(-c3cc(O[C@H](C)c4ccccc4Cl)c(C(N)=O)s3)c2cc1OC   4.9
2  NC(=O)c1ccc(-c2nc(-c3ccccn3)c(-c3ccc4c(c3)OCO4)[nH]2)cc1  10.6

## Task // query inhibition value for entry CC(=O)Nc1cccc(C#Cc2cncnc2Nc2ccc(OCc3cccc(F)c3)c(Cl)c2)n1
## Result 3.12

## Task Here is the next compound: O=C1NC(=O)C(c2ccc(Cl)cc2)=C1Nc1ccc(Cl)c(C(=O)O)c1
## Result -1.39

###

# target system: Rho-associated protein kinase 1 (Homo sapiens);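 note: values are mean percent inhibition of ROCK1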
# test settings: at 0.1 µM
experimental readout: inhibition (%)
Report only the number, with the unit % understood.

>>> print(df.to_string())
                   smiles_data                             target_system  experimental_readout   val
0  COc1ccc(-c2ccncc2)cc1C(N)=O  Rho-associated protein kinase 1 (Homo sapiens)            inhibition  2.65

Continue with the next molecule.
## Task // query inhibition value for entry CCCN1CCC=C(c2ccc(Nc3nc(Nc4ccccc4C(N)=O)c4cc[nH]c4n3)c(C)c2)C1
## Result 2.33
